Reported Emax values follow for various compounds
experimental.target: human OX2R (Homo sapiens (Human))
Sequence (O43614 whole entry): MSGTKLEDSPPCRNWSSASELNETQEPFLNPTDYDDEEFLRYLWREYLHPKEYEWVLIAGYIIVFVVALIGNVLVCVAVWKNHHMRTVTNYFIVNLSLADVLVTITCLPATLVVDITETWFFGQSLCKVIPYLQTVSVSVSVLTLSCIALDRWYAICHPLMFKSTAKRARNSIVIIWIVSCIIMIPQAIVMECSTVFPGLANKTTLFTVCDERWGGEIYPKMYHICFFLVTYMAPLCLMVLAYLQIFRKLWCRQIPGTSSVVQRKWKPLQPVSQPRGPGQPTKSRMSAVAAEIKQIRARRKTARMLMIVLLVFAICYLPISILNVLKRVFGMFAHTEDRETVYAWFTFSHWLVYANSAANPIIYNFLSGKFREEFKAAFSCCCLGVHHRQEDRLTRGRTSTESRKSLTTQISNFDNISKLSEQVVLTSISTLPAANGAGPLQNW
assay.notes: IPOne (IP-One, Cisbio) orexin receptor agonist assay in CHO cells expressing human OX2R
assay.context: CHO, hOX2R_IP; percentage of mean max effect of a reference compound at 1 uM (100% activity vs Orexin A)
Note to self: number, then unit, no commentary.

Past entries and their recorded results:
compound="CC[C@@H]1C[C@H](NS(C)(=O)=O)[C@H](CO[C@H]2CC[C@@H](c3ccccc3)CC2)N1C(=O)OC (racemic) [Example 43]" measurement=103%
compound=CCc1ccccc1[C@H]1CC[C@@H](OC[C@H]2[C@@H](NS(=O)(=O)N(C)C)C[C@@H](C)N2C(=O)OC)CC1 measurement=101%
compound=CNS(=O)(=O)N[C@H]1C[C@@H](C)N(C(=O)OC(C)C)[C@H]1COC1CCN(c2ncccn2)CC1 measurement=100%

Note to self: Emax recorded for COC(=O)N1[C@H](C)C[C@H](NS(=O)(=O)N(C)C)[C@@H]1CO[C@@H]1CC=C(c2cccc(F)c2)CC1 was 102%

Note to self: Emax recorded for COC(=O)N1[C@H](C)C[C@H](NS(=O)(=O)CF)[C@@H]1COC1CCC(c2cccc(F)c2)CC1 (some centres unmarked) was 98%

Note to self: Emax recorded for COC(=O)N1C(C2CC2)C[C@H](NS(C)(=O)=O)C1COC1CCC(c2ccccc2)CC1 (some centres unmarked) was 101%

Note to self: Emax recorded for COC(=O)N1[C@H](C)C[C@H](NS(=O)(=O)N(C)C)[C@@H]1CO[C@@H]1CC[C@H](c2cccc(F)c2)CC1F (some centres unmarked) was 100%

Note to self: Emax recorded for C[C@@H]1C[C@H](NS(=O)(=O)N(C)C)[C@H](CO[C@H]2CC[C@@H](c3cc(F)ccc3F)CC2)N1C(=O)OCC(F)F was 100%
